Target: UniProtKB P16050
Sequence (whole entry): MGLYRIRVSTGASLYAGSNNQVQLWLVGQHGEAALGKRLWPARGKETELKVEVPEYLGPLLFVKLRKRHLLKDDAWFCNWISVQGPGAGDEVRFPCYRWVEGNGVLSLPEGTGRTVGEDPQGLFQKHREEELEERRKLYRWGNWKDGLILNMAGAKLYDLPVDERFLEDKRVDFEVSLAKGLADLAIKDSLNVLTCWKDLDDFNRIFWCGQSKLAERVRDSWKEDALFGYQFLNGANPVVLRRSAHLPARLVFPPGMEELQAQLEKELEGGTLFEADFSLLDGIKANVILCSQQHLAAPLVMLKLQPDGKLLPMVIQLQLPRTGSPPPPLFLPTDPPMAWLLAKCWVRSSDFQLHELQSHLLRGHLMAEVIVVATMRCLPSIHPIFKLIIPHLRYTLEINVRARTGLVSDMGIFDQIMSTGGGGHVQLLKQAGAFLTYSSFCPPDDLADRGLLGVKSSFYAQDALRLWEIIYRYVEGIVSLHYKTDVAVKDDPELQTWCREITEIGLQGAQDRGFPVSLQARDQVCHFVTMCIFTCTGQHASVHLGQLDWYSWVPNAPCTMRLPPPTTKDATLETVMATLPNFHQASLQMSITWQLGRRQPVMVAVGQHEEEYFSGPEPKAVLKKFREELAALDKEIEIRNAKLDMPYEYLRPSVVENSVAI
Assay: Inhibition of recombinant human 15-LOX-1 expressed in Escherichia coli BL21(DE3) assessed as residual activity at 50 uM using linoleic acid as substrate preincubated for 10 mins followed by substrate addition
parameter_measured: Activity (%)
Form entry: value (%) — number only.

smiles_repr=COc1ccc(C(=O)c2[nH]c(N)c(C(=O)NCCc3c[nH]c4ccccc34)c2-c2c(F)cccc2Cl)cc1 parameter_measured=Activity readout_number=71.3
smiles_repr=Nc1[nH]c(C(=O)c2ccccc2)c(-c2cccc(C(F)(F)F)c2)c1C(=O)NCCc1c[nH]c2ccccc12 parameter_measured=Activity readout_number=52.6
smiles_repr=Nc1[nH]c(C(=O)c2ccccc2)c(-c2ccc3ccccc3c2)c1C(=O)NCc1ccc(-c2ccccc2)cc1 parameter_measured=Activity readout_number=122
smiles_repr=COc1ccc(C(=O)c2[nH]c(N)c(C(=O)NCCc3ccc(Cl)cc3Cl)c2-c2ccccc2Br)cc1 parameter_measured=Activity readout_number=86.4
smiles_repr=NC(=O)c1c(N)[nH]c(C(=O)c2ccccc2)c1-c1ccccc1Br parameter_measured=Activity readout_number=87.4

Challenge: Requested field: Activity. Item: `Nc1[nH]c(C(=O)c2ccccc2)c(-c2ccc(Cl)cc2Cl)c1C(=O)NCCc1c[nH]c2ccccc12`
Response given: 22.8

Challenge: Requested field: Activity. Item: `Nc1[nH]c(C(=O)c2ccc(Br)cc2)c(-c2ccc(Cl)cc2Cl)c1C(=O)NCCc1c[nH]c2ccccc12`
Response given: 69.3

Challenge: Requested field: Activity. Item: `Nc1[nH]c(C(=O)c2ccccc2)c(-c2ccccn2)c1C(=O)NCCCCl`
Response given: 92.1
